Each recorded value in this set is attributed to patent US20260116921A1.

Assay: in vitro
Conditions: human, 20% fecal homogenate (supernatant), anaerobic, pH 6.8
Numbered stars: 1 amine (or outer) side, 2 acyl side, 3 side chain; on linkers, the order of the positions; unused ones are H or OH. Bridge positions count the residues as written; N and C are the ends. Square brackets hold non-standard residues; d marks the D form. Peptide text beside a SMILES is read from it. Trp(7-Me) = Cc1cccc2c(C[C@H](N)C(=O)O)c[nH]c12; Abu(4-yl) = O=C([C@H](CC[*:3])N[*:1])[*:2]; 2Nal = N[C@@H](Cc1ccc2ccccc2c1)C(=O)O; AEF = NCCOc1ccc(C[C@H](N)C(=O)O)cc1; αMeK = C[C@](N)(CCCCN)C(=O)O
Measured Property: half-life at 20 μM (h)
Report the figure in h without appending any unit label.

Lab book: half-life at 20 μM of CC(=O)NCCCC[C@@H]1NC(=O)[C@H](Cc2c[nH]c3c(C)cccc23)NC(=O)[C@H]([C@@H](C)O)NC(=O)[C@H](CCC(N)=O)NC(=O)[C@@H](NC(=O)[C@@H](CCCNC(=N)N)NC(C)=O)CCSC[C@@H](C(=O)N[C@@H](Cc2ccc(OCCN)cc2)C(=O)N[C@@H](Cc2ccc3ccccc3c2)C(=O)N[C@@](C)(CCCCN)C(=O)N[C@@H](CCCCNC(C)=O)C(=O)N[C@@H](CC(N)=O)C(N)=O)NC1=O [compound 326] (Ac-[dR][Abu(4-yl)]QT[Trp(7-Me)]K(Ac)C[AEF][2Nal][αMeK]K(Ac)N-NH2; thioether 2-7) noted as 11
